# protocol: Selectivity index, ratio of IC50 for rat L6 cells to IC50 for intracellular amastigote form of Trypanosoma cruzi Tulahuen strain C2C4
# Format: toxicity, cell-based
# reported conditions: read-out: Ratio IC50
recorded endpoint: selectivity ratio

[[record]]
record_smiles = "NCCCNCCCNCCCNCc1ccc(OC2=CC(=O)c3cc4ccccc4cc3C2=O)cc1"
measured_value = 0.29

[[record]]
record_smiles = "O=C1C=C(Oc2ccccc2)C(=O)c2cc3ccccc3cc21"
measured_value = 0.21

[[record]]
record_smiles = "O=C1C=C(Oc2ccccc2)C(=O)c2ccccc21"
measured_value = 4.7

[[record]]
record_smiles = "NCCCCNCc1ccc(OC2=CC(=O)c3cc4ccccc4cc3C2=O)cc1"
measured_value = 0.3

[[record]]
record_smiles = "NCCCNCCCCNCc1ccc(OC2=CC(=O)c3ccccc3C2=O)cc1"
measured_value = 0.18

[[record]]
record_smiles = "NCCCNCCCCNCCCNCc1ccc(OC2=CC(=O)c3cc4ccccc4cc3C2=O)cc1"
measured_value = 0.21

